# Test system: NCI-H460
# Protocol text: NCI tumour cell line growth inhibition, 48 h
Activity calls are given as the source filed them. Rule as the data show it: active = GI50 up to about 1.1 µM and inactive = higher.
The categories you may choose from are yes (1) for active, no (0) for inactive

How did this test come out for CCC(C)C1NC(=O)C(NC(=O)c2c3nc4c(C(=O)NC5C(=O)NC(C(C)CC)C(=O)N6CCCC6C(=O)N(C)CC(=O)N(C)C(C(C)C)C(=O)OC5C)ccc(C)c4oc-3c(C)c(=O)c2O)C(C)OC(=O)C(C(C)C)N(C)C(=O)CN(C)C(=O)C2CCCN2C1=O (centres undefined) ? yes (1)

// query: CCOC(=O)N1[C@@H]2CCC[C@@H]2C(=O)[C@@H]2CCC[C@@H]21 no (0)

# repeat for CC(=O)Nc1ccc(C(=O)N2N=C(C)/C(=C/c3cccc([N+](=O)[O-])c3)C2=O)cc1 no (0)

Also COC(=O)/C=C/CCC#Cc1ccccc1C#CCC/C=C/C(=O)OC ? no (0)

// query: CCCn1cnc2c(/N=N/O)ncnc21 no (0)

Item: Fc1c(F)c(C(F)(F)F)c(F)c(F)c1N/N=C/c1cn(Cc2ccccc2)c2ccccc12 no (0)

Try Cc1ccc(S(=O)(=O)NC(=O)NC(Cc2ccc(O)c(O)c2)C(=O)O)cc1 (centres undefined) next. no (0)

For O=C(NC1(C(=O)O)CCCC1)c1ccccc1 then? no (0)

Can you handle c1csc(-c2ccc(-c3ccc(-c4cccs4)s3)s2)c1 next? no (0)
